- Experimental protocol: In vivo drug level in human urine treated with LY3023703 by HPLC-MS analysis
- Assay type: ADME, organism-based
Measured property: Drug metabolism

Cc1nc(NC(=O)c2cc(CN)cnc2C(F)F)[nH]c1-c1ccc(C(F)(F)F)cc1; Metabolite_Detected
Cc1nc(NC(=O)c2cc(CNC(=O)C(C)CO)cnc2C(F)F)[nH]c1-c1ccc(C(F)(F)F)cc1 (centres undefined); Metabolite_Detected
Cc1nc(NC(=O)c2cc(CNC(=O)C(C)(C)O)cnc2C(F)F)[nH]c1-c1ccc(C(F)(F)F)cc1; Metabolite_Detected
CC(C)C(=O)NCc1cnc(C(F)F)c(C(=O)NC(=N)N)c1; Metabolite_Detected
